property measured: logP

Give its logP value. Item: `Brc1ccccc1-c1ccccc1`
4.59

And for `Clc1c(Cl)c(Cl)c2c(c1Cl)Oc1ccccc1O2` ?
6.2

Try this compound too: `Clc1ccc2oc3ccc(Cl)cc3c2c1`
5.44

Moving on to the next compound: `Cc1ccc(-c2ccccc2)cc1`
4.63

Try this compound next: `Brc1ccc(Br)c(-c2cc(Br)c(Br)cc2Br)c1`
7.1

Note, next up: `Brc1c(Br)c(Br)c(-c2c(Br)c(Br)c(Br)c(Br)c2Br)c(Br)c1Br`
8.58

Moving on to `Clc1ccc2c(c1)Oc1ccccc1O2`
4.94

Now the same for `Brc1cccc(-c2ccccc2)c1`
4.85

Likewise for `Brc1ccc(-c2ccc(Br)cc2)cc1` ?
5.72

Let us now turn to `Brc1ccc(-c2ccccc2)cc1`
4.96

Repeat for the following compound: `Cc1ccc(-c2ccc(C)cc2)cc1`
5.09
